tested on: RKO; assay: Antiproliferative activity against human RKO cells assessed as inhibition of cell growth incubated for 72 hrs by SRB assay; assay type: functional, cell-based
value-kind: IC50 (nM)
Your answer is read as nM, so omit the unit and give the number.

Request: RKO / IC50 / CCCCCCCCC[C@@H](O)CC(=O)N[C@@H](CC(N)=O)C(=O)N[C@@H](CCC(N)=O)C(=O)N[C@H](CC(=O)c1cc(C)cc(O)c1C(=O)c1c(O)cccc1O)CC(C)C : value?
Result: 930

Request: Proceed to COc1cc([C@@H]2c3cc4c(cc3[C@@H](O[C@@H]3O[C@@H]5CO[C@@H](C)O[C@H]5[C@H](O)[C@H]3O)[C@H]3COC(=O)[C@H]23)OCO4)cc(OC)c1O [ETOPOSIDE]
Result: 1960
